System: 616215-338-R-J1-PDC complex spheroid viability;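 further: spheroids exposed to compounds for one week before readout; percent viability relative to DMSO vehicle wells taken as 100%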
Test: Anticancer human tumor 616215-338-R-J1-PDC patient-derived colon adenocarcinoma cell line growth inhibition [POLQ]
Conditions: second compound 1 µM; first compound 0.1 µM; hits give low values
Description: Multicellular complex tumor spheroid response to Polymerase (POL) inhibitors (novobiocin, ART-558, RP6685) in combination with a variety of drugs and investigational agents in selected tumor cell lines The POL inhibitors (novobiocin, ART-558, and RP6685) were evaluated both individually and in combination with standard of care and investigational anticancer small molecules within a complex spheroid model of solid tumors. . […]
testReadout: viability, T/C (%)
Answer format: numeric, % implied, no suffix.

Query :: Give viability, T/C for COc1ccc([C@@H](O)c2cc(-c3ncnc4cc(N5CCOCC5)ccc34)c(F)cc2Cl)nn1 + Cc1cccc(N(C)C(=O)C2C(O)CCN2c2nc(C)cc(C(F)(F)F)c2C#N)c1
Result :: 111

Query :: Write down viability, T/C measured for item CCCS(=O)(=O)Nc1ccc(F)c(C(=O)c2c[nH]c3ncc(-c4ccc(Cl)cc4)cc23)c1F + Nc1ccc(C#CCN(C(=O)Cc2ncc(C(F)(F)F)cc2C(F)(F)F)c2ccc(F)cc2)nn1
Result :: 114

Query :: Input CC[C@@]1(O)C(=O)OCc2c1cc1n(c2=O)Cc2cc3c(CN(C)C)c(O)ccc3nc2-1 + Cc1cccc(N(C)C(=O)C2C(O)CCN2c2nc(C)cc(C(F)(F)F)c2C#N)c1 , output reported viability, T/C.
Result :: 77.2

Query :: Quote viability, T/C reported for Cn1ncnc1[C@H]1c2n[nH]c(=O)c3cc(F)cc(c23)N[C@@H]1c1ccc(F)cc1 + Cc1cccc(N(C)C(=O)C2C(O)CCN2c2nc(C)cc(C(F)(F)F)c2C#N)c1 please.
Result :: 104

Query :: Specify measured viability, T/C for C=CCn1c(=O)c2cnc(Nc3ccc(N4CCN(C)CC4)cc3)nc2n1-c1cccc(C(C)(C)O)n1 + Nc1ccc(C#CCN(C(=O)Cc2ncc(C(F)(F)F)cc2C(F)(F)F)c2ccc(F)cc2)nn1 .
Result :: 96.8

Query :: Answer with the recorded viability, T/C of O=C(c1cc(Cc2n[nH]c(=O)c3ccccc23)ccc1F)N1CCN(C(=O)C2CC2)CC1 + Nc1ccc(C#CCN(C(=O)Cc2ncc(C(F)(F)F)cc2C(F)(F)F)c2ccc(F)cc2)nn1 only.
Result :: 97.6

Query :: For COc1cc2cc(C(=O)CCC(=O)O)sc2cc1OC + COC1C(OC(N)=O)C(O)C(Oc2ccc3c(O)c(NC(=O)c4ccc(O)c(CC=C(C)C)c4)c(=O)oc3c2C)OC1(C)C , write its viability, T/C.
Result :: 88.2

Query :: # return recorded viability, T/C for input C=CC(=O)N1CCN(c2nc(=O)n(-c3c(C)ccnc3C(C)C)c3nc(-c4c(O)cccc4F)c(F)cc23)C(C)C1 (centres undefined) + COC1C(OC(N)=O)C(O)C(Oc2ccc3c(O)c(NC(=O)c4ccc(O)c(CC=C(C)C)c4)c(=O)oc3c2C)OC1(C)C
Result :: 95.8

Query :: Return the recorded viability, T/C value; entry: CC1COCCN1c1cc(C2(S(C)(=N)=O)CC2)nc(-c2ccnc3[nH]ccc23)n1 (centres undefined) + Cc1cccc(N(C)C(=O)C2C(O)CCN2c2nc(C)cc(C(F)(F)F)c2C#N)c1
Result :: 102
